species: Rattus norvegicus; assay: Selectivity index, ratio of IC50 for rat MAO-A to IC50 for rat MAO-B
reported_endpoint: Ratio IC50

For each listed entry, give its Ratio IC50.
1. CCNCc1cc(=O)oc2cc(OCc3cccc(F)c3)ccc12
2. CN(C)C(=O)Cc1cc(=O)oc2cc(OCc3ccccc3)ccc12
3. NCc1cc(=O)oc2cc(OCc3cccc(Cl)c3)ccc12
4. CC(C)NCc1cc(=O)oc2cc(OCc3cccc(F)c3)ccc12
5. NCc1cc(=O)oc2cc(OCc3ccccc3)ccc12
6. NC(=O)[C@@H]1CCCN1c1cc(=O)oc2cc(OCc3ccccc3)ccc12
7. NC(=O)Cc1cc(=O)oc2cc(OCc3cccc(Cl)c3)ccc12

[226, 58, 133, 24, 210, 6, 867]

For each listed entry, give its Ratio IC50.
1. CN(C)CCc1cc(=O)oc2cc(OCc3ccccc3)ccc12
2. CNC(=O)Cc1cc(=O)oc2cc(OCc3ccccc3)ccc12
3. CC(C(N)=O)c1cc(=O)oc2cc(OCc3ccccc3)ccc12 (racemic)
4. NC(=O)Cc1cc(=O)oc2cc(OCc3ccncc3)ccc12

1: 56; 2: 187; 3: 63; 4: 13

---

Molecular target: UniProtKB P21396
Sequence (P21396 whole entry): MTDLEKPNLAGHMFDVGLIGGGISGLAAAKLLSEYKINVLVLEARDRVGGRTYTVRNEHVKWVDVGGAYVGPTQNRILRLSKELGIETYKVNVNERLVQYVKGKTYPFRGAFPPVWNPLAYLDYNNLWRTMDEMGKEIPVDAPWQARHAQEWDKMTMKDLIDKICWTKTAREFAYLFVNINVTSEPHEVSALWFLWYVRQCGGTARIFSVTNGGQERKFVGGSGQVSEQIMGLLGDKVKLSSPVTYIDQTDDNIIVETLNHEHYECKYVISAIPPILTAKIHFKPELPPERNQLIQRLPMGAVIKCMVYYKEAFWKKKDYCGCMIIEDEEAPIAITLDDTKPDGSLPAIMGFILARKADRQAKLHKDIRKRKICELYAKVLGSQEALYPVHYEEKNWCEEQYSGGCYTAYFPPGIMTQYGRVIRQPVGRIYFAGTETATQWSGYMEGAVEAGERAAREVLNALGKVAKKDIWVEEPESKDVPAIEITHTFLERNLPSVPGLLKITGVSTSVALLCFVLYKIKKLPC
// assign satisfied if IC50 falls strictly below 2 µM, else not satisfied (ties count as not satisfied)

# check: IC50 < 2 µM for N#CCc1cc(=O)oc2cc(OCc3ccccc3)ccc12 satisfied

Item: NNC(=O)Cc1cc(=O)oc2cc(OCc3ccccc3)ccc12 satisfied

Item: C[C@H](Nc1cc(=O)oc2cc(OCc3ccccc3)ccc12)C(N)=O not satisfied

Item: CNC(=O)Cc1cc(=O)oc2cc(OCc3cccc(Cl)c3)ccc12 satisfied

Item: CNC(=O)Cc1cc(=O)oc2cc(OCc3ccccc3)ccc12 not satisfied

New cases:
# check: IC50 < 2 µM for NNC(=O)Cc1cc(=O)oc2cc(OCc3cccc(Cl)c3)ccc12 not satisfied

---

target: Cytochrome P450 2D6 (Homo sapiens, UniProt P10635); assay: Inhibition of human recombinant CYP2D6
Sequence (P10635 whole entry): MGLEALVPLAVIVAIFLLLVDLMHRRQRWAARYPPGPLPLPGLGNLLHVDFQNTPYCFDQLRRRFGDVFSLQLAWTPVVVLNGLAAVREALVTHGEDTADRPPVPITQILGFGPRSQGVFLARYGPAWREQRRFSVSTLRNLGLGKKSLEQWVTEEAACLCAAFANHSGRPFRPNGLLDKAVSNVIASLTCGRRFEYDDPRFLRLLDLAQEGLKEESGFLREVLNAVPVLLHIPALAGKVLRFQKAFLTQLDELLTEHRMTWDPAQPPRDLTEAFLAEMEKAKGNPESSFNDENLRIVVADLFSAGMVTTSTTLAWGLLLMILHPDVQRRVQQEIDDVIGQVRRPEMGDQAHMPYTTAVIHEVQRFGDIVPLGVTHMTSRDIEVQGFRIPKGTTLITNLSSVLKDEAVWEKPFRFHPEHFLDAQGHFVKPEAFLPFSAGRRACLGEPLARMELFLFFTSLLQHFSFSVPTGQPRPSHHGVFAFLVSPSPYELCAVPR
pIC50: −log10 of the molar value.
reported_endpoint: pIC50

What is its pIC50 for Cytochrome P450 2D6 (Homo sapiens, UniProt P10635)? Entry: CNCc1cc(=O)oc2cc(OCc3cccc(Cl)c3)ccc12.CS(=O)(=O)O < 5.30

---

target: Amine oxidase [flavin-containing] B (Homo sapiens); assay: Inhibition of MAO-B in human platelet rich plasma by radioenzymatic assay
reported_endpoint: IC50 (nM)
Answers are plain numbers, in nM.

Fill in: IC50 of CNCc1cc(=O)oc2cc(OCc3cccc(Cl)c3)ccc12.CS(=O)(=O)O is ___ 3

---

test: Aqueous solubility at pH 3.0 by turbidimetric method; format: physicochemical; conditions: aqueous solution
reported_endpoint: solubility kinetic (µg/mL)
Numbers only, in µg/mL.

Fill in: solubility kinetic of CNCc1cc(=O)oc2cc(OCc3cccc(Cl)c3)ccc12.CS(=O)(=O)O is ___ 2820

---

test: Dissociation constant, pKa by potentiometric titration; type: physicochemical
reported_endpoint: pKa
Numbers only.

Fill in: pKa of CNCc1cc(=O)oc2cc(OCc3cccc(Cl)c3)ccc12.CS(=O)(=O)O is ___ 7.18

---

Exercise: state measured Ratio IC50 for each of the molecules provided.
species on record: Rattus norvegicus; assay: Selectivity index, ratio of IC50 for rat MAO-A to IC50 for rat MAO-B

Illustrative cases are given below, each with its answer.
Fill in: Ratio IC50 of O=C(Cc1cc(=O)oc2cc(OCc3cccc(Cl)c3)ccc12)NCc1ccccc1 is ___ > 20

Item: O=c1cc(CNCc2ccccc2)c2ccc(OCc3cccc(Cl)c3)cc2o1 > 28

From here, focus on the item given below.
Fill in: Ratio IC50 of CN(Cc1ccccc1)Cc1cc(=O)oc2cc(OCc3cccc(Cl)c3)ccc12 is ___ > 13

---

IC50 data for Amine oxidase [flavin-containing] A (Rattus norvegicus) follow.
One number for each entry, in µM.

Illustrative cases are given below, each with its answer.
What is its IC50 for Amine oxidase [flavin-containing] A (Rattus norvegicus)? Entry: NC(=O)Cc1cc(=O)oc2cc(OCc3cccc(Cl)c3)ccc12 26

Item: NCc1cc(=O)oc2cc(OCc3ccccc3)ccc12 4.4

New cases:
What is its IC50 for Amine oxidase [flavin-containing] A (Rattus norvegicus)? Entry: NC(=O)Cc1cc(=O)oc2cc(OCc3cccnc3)ccc12 21

These data points were gathered from ChEMBL document CHEMBL1154599.
